Provenance of the data: paper PMC6272279

Target protein (sequence): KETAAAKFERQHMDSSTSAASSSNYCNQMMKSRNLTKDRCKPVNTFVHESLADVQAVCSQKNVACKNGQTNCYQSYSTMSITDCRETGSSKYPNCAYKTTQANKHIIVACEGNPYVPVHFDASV
Recorded Ki, one value per entry.
Provide only the numeric value, understood in µM.

O=C(O)CN(CC(=O)O)C(=O)Cn1ccc(=O)[nH]c1=O 301
O=C(O)CN(CCO)C(=O)Cn1ccc(=O)[nH]c1=O 454

## Input Any idea what Ki was measured for "Nc1ccn(CC(=O)N(CCO)CC(=O)O)c(=O)n1" ?
## Output 356

## Input What do you get for "Nc1ccn(CC(=O)N(CC(=O)O)CC(=O)O)c(=O)n1" ?
## Output 235
